Test system: MCF-7 cells
test.description: colony assay of Example 1 with human breast carcinoma MCF-7 cell line
Type: cell-based
experimental.context: Homo sapiens, MCF7, 24 h, Table VI; human breast carcinoma, 24 hours treatment
Each entry below lists one item and its recorded IC50 value.

- smiles.notation: "CCn1c(=CC2=[N+](CC)CCS2)sc(=C2Oc3ccc4ccccc4c3N2C)c1=O"
  target.of.assay: "MCF-7 cells"
  IC50: "0.1 µg/mL"
- smiles.notation: "CCn1c(=Cc2oc3ccccc3[n+]2C)sc(=C2Sc3ccccc3N2C)c1=O"
  target.of.assay: "MCF-7 cells"
  IC50: "0.06 µg/mL"
- smiles.notation: "CCn1c(=Cc2oc3ccc4ccccc4c3[n+]2CC)sc(=C2Oc3c(ccc4ccccc34)N2C)c1=O"
  target.of.assay: "MCF-7 cells"
  IC50: "0.03 µg/mL"
- smiles.notation: "CCn1c(=Cc2sc3c4ccccc4ccc3[n+]2CC)sc(=C2Sc3ccc4ccccc4c3N2C)c1=O"
  target.of.assay: "MCF-7 cells"
  IC50: "0.064 µg/mL"
- smiles.notation: "CCn1c(=C2CC[n+]3c2sc2ccccc23)sc(=C2Sc3ccccc3N2C)c1=O"
  target.of.assay: "MCF-7 cells"
  IC50: "0.05 µg/mL"
- smiles.notation: "CCn1c(=Cc2sc3ccc4ccccc4c3[n+]2CC)sc(=C2Oc3ccc4ccccc4c3N2C)c1=O"
  target.of.assay: "MCF-7 cells"
  IC50: "0.04 µg/mL"
- smiles.notation: "CCn1c(=Cc2oc3c4ccccc4ccc3[n+]2CC)sc(=C2Sc3ccc4ccccc4c3N2C)c1=O"
  target.of.assay: "MCF-7 cells"
  IC50: "0.05 µg/mL"
- smiles.notation: "CCn1c(=C2CCC[n+]3c2sc2ccccc23)sc(=C2Sc3ccccc3N2C)c1=O"
  target.of.assay: "MCF-7 cells"
  IC50: "0.09 µg/mL"
- smiles.notation: "CCn1c(=Cc2oc3c4ccccc4ccc3[n+]2CC)sc(=C2Oc3ccc4ccccc4c3N2C)c1=O"
  target.of.assay: "MCF-7 cells"
  IC50: "0.03 µg/mL"
- smiles.notation: "CCn1c(=Cc2oc3cc4ccccc4cc3[n+]2CC)sc(=C2C=Cc3ccccc3N2C)c1=O"
  target.of.assay: "MCF-7 cells"
  IC50: "0.05 µg/mL"
- smiles.notation: "CCn1c(=Cc2cc[n+](CC)c3ccccc23)sc(=C2C=Cc3ccccc3N2C)c1=O"
  target.of.assay: "MCF-7 cells"
  IC50: "0.04 µg/mL"
- smiles.notation: "CCN1C(=c2sc(=Cc3oc4ccccc4[n+]3CC)n(CC)c2=O)Sc2ccccc21"
  target.of.assay: "MCF-7 cells"
  IC50: "0.06 µg/mL"
- smiles.notation: "CCn1c(=Cc2oc3ccc4ccccc4c3[n+]2CC)sc(=C2Sc3ccccc3N2C)c1=O"
  target.of.assay: "MCF-7 cells"
  IC50: "0.05 µg/mL"
- smiles.notation: "CCn1c(=Cc2sc3c4ccccc4ccc3[n+]2CC)sc(=C2Sc3ccccc3N2C)c1=O"
  target.of.assay: "MCF-7 cells"
  IC50: "0.04 µg/mL"
- smiles.notation: "CCn1c(=CC2=[N+](CC)CCS2)sc(=C2SC3=C(CCCC3)N2C)c1=O"
  target.of.assay: "MCF-7 cells"
  IC50: "0.1 µg/mL"
- smiles.notation: "CCn1c(=Cc2sc3ccc4ccccc4c3[n+]2CC)sc(=C2SCCN2C)c1=O"
  target.of.assay: "MCF-7 cells"
  IC50: "0.1 µg/mL"

Reference for the values: patent US5360803A
